Taken from ChEMBL document CHEMBL4602617.

# measured.target: Serine/threonine-protein kinase Nek9 (Homo sapiens)
# Sequence (Q8TD19 whole entry): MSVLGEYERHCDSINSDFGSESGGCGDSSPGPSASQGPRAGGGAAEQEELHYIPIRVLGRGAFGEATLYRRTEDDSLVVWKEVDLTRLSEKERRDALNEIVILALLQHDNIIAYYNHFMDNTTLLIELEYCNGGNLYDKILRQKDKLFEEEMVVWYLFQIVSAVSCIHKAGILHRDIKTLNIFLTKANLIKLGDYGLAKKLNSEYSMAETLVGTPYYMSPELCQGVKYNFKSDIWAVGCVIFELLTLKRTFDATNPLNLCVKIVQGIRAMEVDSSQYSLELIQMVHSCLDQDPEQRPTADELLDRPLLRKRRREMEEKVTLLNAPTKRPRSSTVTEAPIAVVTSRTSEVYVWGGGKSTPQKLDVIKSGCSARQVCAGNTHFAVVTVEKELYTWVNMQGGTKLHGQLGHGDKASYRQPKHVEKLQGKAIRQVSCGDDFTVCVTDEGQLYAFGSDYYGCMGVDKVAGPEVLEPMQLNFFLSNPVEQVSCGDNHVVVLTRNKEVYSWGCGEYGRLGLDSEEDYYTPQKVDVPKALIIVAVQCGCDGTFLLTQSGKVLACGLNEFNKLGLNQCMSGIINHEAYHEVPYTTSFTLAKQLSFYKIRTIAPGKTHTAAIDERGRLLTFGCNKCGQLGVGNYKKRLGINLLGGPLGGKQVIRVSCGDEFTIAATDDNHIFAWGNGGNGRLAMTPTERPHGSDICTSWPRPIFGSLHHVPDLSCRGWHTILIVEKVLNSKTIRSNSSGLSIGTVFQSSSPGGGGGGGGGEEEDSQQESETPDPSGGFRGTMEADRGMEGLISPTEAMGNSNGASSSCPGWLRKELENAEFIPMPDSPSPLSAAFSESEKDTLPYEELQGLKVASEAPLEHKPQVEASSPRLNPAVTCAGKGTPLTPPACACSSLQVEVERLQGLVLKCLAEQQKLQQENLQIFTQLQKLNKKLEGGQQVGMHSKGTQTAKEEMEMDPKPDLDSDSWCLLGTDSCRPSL
# test.details: Inhibition of recombinant human GST-tagged NEK9 catalytic domain (347 to 732 residues) expressed in baculovirus expression system using serine/threonine-7 peptide as substrate incubated for 60 mins in presence of ATP by Z'-LYTE assay
pIC50: −log10 of the molar value.
measure.name: pIC50

Q: State the recorded pIC50 for this entry: C[C@@H]1C[C@H]1C(=O)N1CCN(c2cnc(C#N)c(-c3cnn(C)c3)n2)C[C@H]1C
A: < 4.00

* * *

# measured.target: Tyrosine-protein kinase Yes (Homo sapiens)
# Sequence (P07947 whole entry): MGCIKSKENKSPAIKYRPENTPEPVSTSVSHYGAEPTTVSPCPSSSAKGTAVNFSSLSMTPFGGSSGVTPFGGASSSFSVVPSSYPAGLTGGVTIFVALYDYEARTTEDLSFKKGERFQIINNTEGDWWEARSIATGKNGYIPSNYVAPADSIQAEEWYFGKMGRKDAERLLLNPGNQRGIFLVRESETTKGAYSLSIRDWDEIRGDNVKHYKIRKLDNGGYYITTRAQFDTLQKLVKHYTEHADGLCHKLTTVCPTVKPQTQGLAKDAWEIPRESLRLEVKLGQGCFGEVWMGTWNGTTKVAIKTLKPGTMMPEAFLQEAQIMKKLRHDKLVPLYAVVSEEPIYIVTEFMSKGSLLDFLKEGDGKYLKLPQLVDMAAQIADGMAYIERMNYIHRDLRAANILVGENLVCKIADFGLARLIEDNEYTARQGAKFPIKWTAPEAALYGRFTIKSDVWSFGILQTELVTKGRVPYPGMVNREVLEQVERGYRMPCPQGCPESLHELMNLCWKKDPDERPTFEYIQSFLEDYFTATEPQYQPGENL
# test.details: Inhibition of full length recombinant GST-tagged human YES1 expressed in baculovirus expression system using tyr 02 peptide as substrate after 1 hr in presence of ATP by Z'-LYTE assay
measure.name: IC50 (µM)
Give your result in µM as a bare value.

Q: Give IC50 (Tyrosine-protein kinase Yes (Homo sapiens)) of the following compound: C[C@@H]1C[C@H]1C(=O)N1CCN(c2cnc(C#N)c(-c3cnn(C)c3)n2)C[C@H]1C
A: 37

* * *

# measured.target: Casein kinase II subunit alpha (Homo sapiens)
# Sequence (P68400 whole entry): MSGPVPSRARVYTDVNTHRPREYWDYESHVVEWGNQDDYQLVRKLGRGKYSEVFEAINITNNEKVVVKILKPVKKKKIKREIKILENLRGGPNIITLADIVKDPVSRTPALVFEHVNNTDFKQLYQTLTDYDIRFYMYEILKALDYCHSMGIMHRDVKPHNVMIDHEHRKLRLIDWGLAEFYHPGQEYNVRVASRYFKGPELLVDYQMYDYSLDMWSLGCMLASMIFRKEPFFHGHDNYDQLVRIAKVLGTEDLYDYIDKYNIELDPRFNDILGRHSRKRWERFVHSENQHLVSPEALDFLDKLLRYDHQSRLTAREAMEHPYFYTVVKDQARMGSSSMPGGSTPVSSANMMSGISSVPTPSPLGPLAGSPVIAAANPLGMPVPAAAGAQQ
# test.details: Inhibition of recombinant human full-length His-tagged CSNK2A1 expressed in baculovirus expression system using FRET-labeled Ser/Thr 11 peptide as substrate measured after 1 hr in presence of ATP by Z'-lyte assay
pIC50: −log10 of the molar value.
measure.name: pIC50

Q: State the recorded pIC50 for this entry: C[C@@H]1C[C@H]1C(=O)N1CCN(c2cnc(C#N)c(-c3cnn(C)c3)n2)C[C@H]1C
A: < 4.00

* * *

# measured.target: Ephrin type-A receptor 5 (Homo sapiens)
# Sequence (P54756 whole entry, the tested form may be a part): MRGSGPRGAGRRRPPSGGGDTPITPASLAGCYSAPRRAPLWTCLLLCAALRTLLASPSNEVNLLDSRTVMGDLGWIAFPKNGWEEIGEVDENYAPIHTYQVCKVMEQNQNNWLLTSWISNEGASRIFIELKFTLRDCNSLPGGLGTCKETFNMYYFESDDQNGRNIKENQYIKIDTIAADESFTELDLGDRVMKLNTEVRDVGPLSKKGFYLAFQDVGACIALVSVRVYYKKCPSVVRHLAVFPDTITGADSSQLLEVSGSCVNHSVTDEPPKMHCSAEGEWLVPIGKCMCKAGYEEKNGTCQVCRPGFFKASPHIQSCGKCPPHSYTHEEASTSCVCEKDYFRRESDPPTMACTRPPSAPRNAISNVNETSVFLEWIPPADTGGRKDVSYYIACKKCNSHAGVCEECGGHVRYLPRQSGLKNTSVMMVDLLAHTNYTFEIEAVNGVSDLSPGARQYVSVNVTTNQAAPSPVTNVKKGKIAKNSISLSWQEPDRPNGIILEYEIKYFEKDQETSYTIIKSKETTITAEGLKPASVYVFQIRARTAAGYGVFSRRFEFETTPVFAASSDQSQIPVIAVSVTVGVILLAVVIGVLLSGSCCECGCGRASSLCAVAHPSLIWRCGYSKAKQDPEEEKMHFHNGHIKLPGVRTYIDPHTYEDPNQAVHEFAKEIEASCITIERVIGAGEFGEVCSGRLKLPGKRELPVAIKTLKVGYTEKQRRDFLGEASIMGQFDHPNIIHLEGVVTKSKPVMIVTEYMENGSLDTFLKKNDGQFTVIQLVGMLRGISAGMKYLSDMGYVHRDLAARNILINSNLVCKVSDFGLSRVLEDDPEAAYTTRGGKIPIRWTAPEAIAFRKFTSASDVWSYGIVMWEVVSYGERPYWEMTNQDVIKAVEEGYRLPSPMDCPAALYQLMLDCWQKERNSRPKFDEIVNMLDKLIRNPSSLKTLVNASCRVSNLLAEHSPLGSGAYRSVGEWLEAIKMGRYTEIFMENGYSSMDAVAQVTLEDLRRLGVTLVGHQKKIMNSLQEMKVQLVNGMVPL
# test.details: Inhibition of recombinant human GST-tagged EPHA5 cytoplasmic domain expressed in baculovirus expression system using tyrosine-01 peptide as substrate incubated for 60 mins in presence of ATP by Z'-Lyte assay
pIC50: −log10 of the molar value.
measure.name: pIC50

Q: State the recorded pIC50 for this entry: C[C@@H]1C[C@H]1C(=O)N1CCN(c2cnc(C#N)c(-c3cnn(C)c3)n2)C[C@H]1C
A: < 4.00

* * *

# measured.target: Serine/threonine-protein kinase MARK2 (Homo sapiens, UniProt Q7KZI7)
# Sequence (Q7KZI7 whole entry): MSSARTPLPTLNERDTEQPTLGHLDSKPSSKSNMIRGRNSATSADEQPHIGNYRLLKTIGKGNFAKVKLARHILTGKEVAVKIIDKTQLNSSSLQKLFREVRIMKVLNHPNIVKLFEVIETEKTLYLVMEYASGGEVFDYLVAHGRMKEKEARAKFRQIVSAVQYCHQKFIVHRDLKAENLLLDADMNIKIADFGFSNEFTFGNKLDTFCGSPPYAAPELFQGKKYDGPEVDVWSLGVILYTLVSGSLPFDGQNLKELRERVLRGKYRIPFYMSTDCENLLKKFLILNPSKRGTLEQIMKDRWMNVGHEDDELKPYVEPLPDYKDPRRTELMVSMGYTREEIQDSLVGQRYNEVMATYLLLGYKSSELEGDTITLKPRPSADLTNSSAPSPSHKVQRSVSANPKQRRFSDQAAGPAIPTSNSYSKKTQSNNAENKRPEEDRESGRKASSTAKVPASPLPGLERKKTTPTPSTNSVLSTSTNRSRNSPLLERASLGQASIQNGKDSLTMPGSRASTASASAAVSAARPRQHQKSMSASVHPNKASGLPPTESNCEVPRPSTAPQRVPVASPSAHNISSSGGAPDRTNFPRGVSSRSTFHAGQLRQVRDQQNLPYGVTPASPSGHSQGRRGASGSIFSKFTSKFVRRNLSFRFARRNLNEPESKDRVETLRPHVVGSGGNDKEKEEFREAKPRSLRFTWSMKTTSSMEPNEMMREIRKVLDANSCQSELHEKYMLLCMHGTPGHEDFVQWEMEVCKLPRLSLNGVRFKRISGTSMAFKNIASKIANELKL
# test.details: Inhibition of recombinant full length human GST-tagged MARK2 expressed in baculovirus expression system using serine/threonine-21 peptide as substrate incubated for 60 mins in presence of ATP by Z'-LYTE assay
pIC50: −log10 of the molar value.
measure.name: pIC50

Q: State the recorded pIC50 for this entry: C[C@@H]1C[C@H]1C(=O)N1CCN(c2cnc(C#N)c(-c3cnn(C)c3)n2)C[C@H]1C
A: < 4.00

* * *

# measured.target: Serine/threonine-protein kinase Nek1 (Homo sapiens, UniProt Q96PY6)
# test.details: Inhibition of recombinant human GST-tagged NEK1 catalytic domain (1 to 505 residues) expressed in baculovirus expression system using serine/threonine-7 peptide as substrate incubated for 60 mins in presence of ATP by Z'-LYTE assay
pIC50: −log10 of the molar value.
measure.name: pIC50

Q: State the recorded pIC50 for this entry: C[C@@H]1C[C@H]1C(=O)N1CCN(c2cnc(C#N)c(-c3cnn(C)c3)n2)C[C@H]1C
A: < 4.00

* * *

# measured.target: SRSF protein kinase 1 (Homo sapiens, UniProt Q96SB4)
# Sequence (Q96SB4 whole entry): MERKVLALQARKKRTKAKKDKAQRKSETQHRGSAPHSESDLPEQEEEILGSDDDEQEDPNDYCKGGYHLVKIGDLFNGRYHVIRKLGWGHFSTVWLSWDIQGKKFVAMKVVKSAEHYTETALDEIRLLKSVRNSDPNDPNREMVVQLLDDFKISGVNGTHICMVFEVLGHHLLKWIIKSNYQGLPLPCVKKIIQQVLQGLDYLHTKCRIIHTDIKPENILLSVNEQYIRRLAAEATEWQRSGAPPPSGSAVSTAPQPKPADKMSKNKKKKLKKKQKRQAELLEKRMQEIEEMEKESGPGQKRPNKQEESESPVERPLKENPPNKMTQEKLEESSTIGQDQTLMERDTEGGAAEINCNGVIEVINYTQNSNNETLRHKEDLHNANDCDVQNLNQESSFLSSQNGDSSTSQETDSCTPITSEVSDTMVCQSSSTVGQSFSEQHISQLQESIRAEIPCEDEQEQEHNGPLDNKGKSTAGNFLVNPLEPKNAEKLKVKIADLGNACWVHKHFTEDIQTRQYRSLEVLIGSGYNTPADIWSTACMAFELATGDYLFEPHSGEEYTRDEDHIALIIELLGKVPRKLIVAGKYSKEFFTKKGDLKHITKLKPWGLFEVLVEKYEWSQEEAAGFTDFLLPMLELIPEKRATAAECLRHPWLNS
# test.details: Inhibition of recombinant full length human His-tagged SRPK1 expressed in baculovirus expression system using serine/threonine-18 peptide as substrate incubated for 60 mins in presence of ATP by Z'-LYTE assay
measure.name: IC50

Q: State the recorded IC50 for this entry: C[C@@H]1C[C@H]1C(=O)N1CCN(c2cnc(C#N)c(-c3cnn(C)c3)n2)C[C@H]1C
A: > 100 µM

* * *

# test.details: Oral bioavailability in rat at 0.5 mg/kg
# Assay type: ADME, organism-based
# test.parameters: in vivo
measure.name: bioavailability (%)
Give your result in % as a bare value.

Q: State the recorded bioavailability for this entry: C[C@@H]1C[C@H]1C(=O)N1CCN(c2cnc(C#N)c(-c3cnn(C)c3)n2)C[C@H]1C
A: 79

* * *

# measured.target: Ephrin type-A receptor 3 (Homo sapiens)
# test.details: Inhibition of tracer 236 binding to recombinant human His-tagged EPHA3 (569 to 976 residues) expressed in baculovirus expression system measured after 60 mins in presence of ATP by Lanthascreen assay
measure.name: IC50

Q: State the recorded IC50 for this entry: C[C@@H]1C[C@H]1C(=O)N1CCN(c2cnc(C#N)c(-c3cnn(C)c3)n2)C[C@H]1C
A: > 100 µM

* * *

# Organism: Homo sapiens
# test.details: Selectivity index, ratio IC50 for inhibition of recombinant human full-length N-terminal His6-tagged p110alpha/untagged full-length p85alpha expressed in baculovirus infected Sf21 cells to ratio IC50 for inhibition of recombinant human full-length N-terminal GST-tagged p110delta/untagged full-length p85alpha expressed in baculovirus infected Sf21 cells
Overview of reported Ratio IC50 across a group of compounds:

[[record]]
smiles_repr = "C[C@@H]1CN(c2ncc(C#N)c(-c3cnn(C)c3)n2)CCN1C(=O)C1CC1"
measure_name = "Ratio IC50"
endpoint_value = "> 583"

[[record]]
smiles_repr = "C[C@@H]1C[C@H]1C(=O)N1CCN(c2nc(-c3cnn(C)c3)ncc2C#N)C[C@H]1C"
measure_name = "Ratio IC50"
endpoint_value = "> 394"

[[record]]
smiles_repr = "N#Cc1cnc(N2Cc3cn[nH]c3C2)nc1N1C[C@@H]2C[C@H]1CN2c1cccc(F)c1"
measure_name = "Ratio IC50"
endpoint_value = "> 146"

[[record]]
smiles_repr = "N#Cc1cnc(-c2ccnc3[nH]ccc23)nc1N1C[C@@H]2C[C@H]1CN2c1cccc(F)c1"
measure_name = "Ratio IC50"
endpoint_value = 76

[[record]]
smiles_repr = "Cn1cc(-c2ncc(C#N)c(N3CCN(c4cccc(F)c4)CC3)n2)cn1"
measure_name = "Ratio IC50"
endpoint_value = "> 8"


Q: State the recorded Ratio IC50 for this entry: N#Cc1cnc(-c2cccnc2)nc1N1C[C@@H]2C[C@H]1CN2c1cccc(F)c1
A: > 27

Q: State the recorded Ratio IC50 for this entry: C[C@@H]1C[C@H]1C(=O)N1CCN(c2cnc(C#N)c(-c3cnn(C)c3)n2)C[C@H]1C
A: > 373

* * *

# measured.target: Homeodomain-interacting protein kinase 2 (Homo sapiens, UniProt Q9H2X6)
# Sequence (Q9H2X6 whole entry): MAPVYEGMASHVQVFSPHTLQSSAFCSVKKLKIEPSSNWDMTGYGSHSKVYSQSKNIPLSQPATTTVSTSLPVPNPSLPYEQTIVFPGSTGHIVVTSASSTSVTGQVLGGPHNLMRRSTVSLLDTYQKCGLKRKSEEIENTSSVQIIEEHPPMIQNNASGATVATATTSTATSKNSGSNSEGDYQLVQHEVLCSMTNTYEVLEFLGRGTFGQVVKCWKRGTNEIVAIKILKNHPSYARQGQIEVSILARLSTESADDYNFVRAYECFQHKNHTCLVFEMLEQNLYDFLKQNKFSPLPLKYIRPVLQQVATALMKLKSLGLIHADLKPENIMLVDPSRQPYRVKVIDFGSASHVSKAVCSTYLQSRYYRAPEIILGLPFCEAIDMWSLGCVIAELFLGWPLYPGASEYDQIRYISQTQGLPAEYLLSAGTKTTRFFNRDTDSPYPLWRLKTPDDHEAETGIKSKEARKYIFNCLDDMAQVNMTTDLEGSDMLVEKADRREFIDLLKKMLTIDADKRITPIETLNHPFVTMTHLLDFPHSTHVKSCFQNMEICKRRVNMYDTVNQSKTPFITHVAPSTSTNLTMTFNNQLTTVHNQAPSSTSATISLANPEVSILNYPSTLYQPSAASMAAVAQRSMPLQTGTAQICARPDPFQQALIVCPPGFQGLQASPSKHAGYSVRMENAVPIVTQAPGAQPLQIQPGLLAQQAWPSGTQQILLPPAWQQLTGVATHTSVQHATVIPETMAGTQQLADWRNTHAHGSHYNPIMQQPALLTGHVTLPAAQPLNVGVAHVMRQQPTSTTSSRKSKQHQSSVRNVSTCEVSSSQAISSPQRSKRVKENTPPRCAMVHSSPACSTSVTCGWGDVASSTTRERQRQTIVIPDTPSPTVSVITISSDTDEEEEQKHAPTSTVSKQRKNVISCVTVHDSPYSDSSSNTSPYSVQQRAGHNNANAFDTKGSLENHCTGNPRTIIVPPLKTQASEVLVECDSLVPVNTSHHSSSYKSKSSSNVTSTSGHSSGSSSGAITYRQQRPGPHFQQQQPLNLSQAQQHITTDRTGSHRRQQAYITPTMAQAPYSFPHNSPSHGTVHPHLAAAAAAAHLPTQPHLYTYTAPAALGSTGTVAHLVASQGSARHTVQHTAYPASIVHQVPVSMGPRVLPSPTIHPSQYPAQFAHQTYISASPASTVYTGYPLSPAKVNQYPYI
# test.details: Inhibition of recombinant human GST-tagged HIPK2 expressed in baculovirus expression system using serine/threonine-9 peptide as substrate incubated for 60 mins in presence of ATP by Z'-LYTE assay
pIC50: −log10 of the molar value.
measure.name: pIC50

Q: State the recorded pIC50 for this entry: C[C@@H]1C[C@H]1C(=O)N1CCN(c2cnc(C#N)c(-c3cnn(C)c3)n2)C[C@H]1C
A: < 4.00

* * *

# measured.target: UniProt Q05513
# test.details: Inhibition of recombinant full length human PKCzeta expressed in baculovirus expression system using serine/threonine-7 peptide as substrate incubated for 60 mins in presence of ATP by Z'-LYTE assay
measure.name: IC50

Q: State the recorded IC50 for this entry: C[C@@H]1C[C@H]1C(=O)N1CCN(c2cnc(C#N)c(-c3cnn(C)c3)n2)C[C@H]1C
A: > 100 µM
